Catalogue of binders with associated koff
- system under test: T1, recombinant monkey TfR (r monkey TfR: Sino Biological Inc.) (cynomolgus monkey (Macaca fascicularis), UniProt Q5RDH6 89-760 (Pongo abelii entry))
- T1 construct: Bought product; also called r monkey TfR-ECD (Histag); cynomolgus monkey TfR; not shown: histidine tag attached to the N-terminus
- T1 chain: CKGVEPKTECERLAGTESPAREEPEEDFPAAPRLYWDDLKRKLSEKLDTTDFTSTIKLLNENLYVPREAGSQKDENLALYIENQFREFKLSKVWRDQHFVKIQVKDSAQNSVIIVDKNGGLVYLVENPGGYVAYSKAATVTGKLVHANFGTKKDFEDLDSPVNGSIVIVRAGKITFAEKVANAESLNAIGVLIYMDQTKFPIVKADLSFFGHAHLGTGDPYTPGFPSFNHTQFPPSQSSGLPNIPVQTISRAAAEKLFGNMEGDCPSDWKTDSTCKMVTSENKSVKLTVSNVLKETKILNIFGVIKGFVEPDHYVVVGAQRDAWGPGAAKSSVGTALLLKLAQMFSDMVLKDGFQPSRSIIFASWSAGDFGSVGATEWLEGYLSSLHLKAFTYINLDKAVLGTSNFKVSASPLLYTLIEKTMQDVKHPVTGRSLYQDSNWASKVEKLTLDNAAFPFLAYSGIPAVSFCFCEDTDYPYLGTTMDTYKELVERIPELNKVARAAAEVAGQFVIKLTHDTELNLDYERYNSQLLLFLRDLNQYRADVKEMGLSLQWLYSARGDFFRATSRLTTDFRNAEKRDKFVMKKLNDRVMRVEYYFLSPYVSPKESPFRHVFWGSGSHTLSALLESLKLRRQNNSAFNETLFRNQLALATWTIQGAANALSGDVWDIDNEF
- assay method text: BLI (Octet RED96), His-tagged TfR ECD loaded on Ni-NTA sensor, antibody as analyte
All answers are understood in s⁻¹, so give the number only.

{"columns": ["binder", "koff [s⁻¹]"],
 "data": [
  ["anti-hTfR antibody No. 11 (antibody, V domains shown, Mouse hybridoma antibody purified on Protein G; also called mouse anti-hTfR antibody No. 11; product of Clone 11 line) VH: EVQLQESGAELVRPGSSVKISCKASGYAFSIYWINWLKQRPGQGLEWIGQIYPGNGDTNYNGKFKGKATLTADKSSNTVYMRLSSLTSEDSAVYFCGRWGDDYAMDFWGQGTSVTVSS VL: DIVLTQSPATLSVTPGDRVSLSCRASQSIRNYLHWYQQKSHESPRLLIKYASQSISGIPSRFSGSGSGTDFTLSINSVETEDFGMYFCQQTNSWPYTFGGGTKLEIK", 0.000421]
]}

Qu. # lookup: koff of anti-hTfR antibody No. 10 (antibody, V domains shown, Mouse hybridoma antibody purified on Protein G; also called mouse anti-hTfR antibody No. 10; product of Clone 10 line) VH: EVQLQESGGGLVKPGGSLKLSCEASGITFRNYAMSWVRQTPEKRLEWVATISSYGGYTYYADSVKGRFTVSRDNAGNTLYLQMSSLRSEDTAMYHCARQEVPYPYPMDNWGQGTSVIVSS VL: DIVMTQTPSSLSASLGERVSLTCRPSQEISGYLSWLQQKPDGTIKRLIYAASTLDSGVPKRFSGSRSGSDYSLTISSLESEDFADYYCLQYASYPRTFGGGTKLEIK
Ans. 0.0122

Qu. # lookup: koff of anti-hTfR antibody No. 14 (antibody, V domains shown, Mouse hybridoma antibody purified on Protein G; also called mouse anti-hTfR antibody No. 14; product of Clone 14 line) VH: EVQLQESGPELLKPGASVKMSCKASGYAFTGYVIHWVKQKPGQGLEWIGFLNPHKDDSEYNEKFRGKATLTSDKSSSTAYMDLSSLTSEDSAVYYCARGYYYYSMDYWGQGTSVTVSS VL: DIVLTQTPVIMSAYPGEKVTLTCSASSNINSIHWYQQKPGTSPKRWIYDTSNLASGVPARFSGSGSGTSYSLTISSMEAEDAASYYCHQRSGYPFTFGSGTKLEIK
Ans. 3.61e-05

Qu. # lookup: koff of anti-hTfR antibody No. 7 (antibody, V domains shown, Mouse hybridoma antibody purified on Protein G; also called mouse anti-hTfR antibody No. 7; product of Clone 7 line) VH: EVQLQESGGALVKPGGSLKVSCEASGITFRNYFMSWVRQTPEKRLEWVATISSAGGYTYYADSVKGRFTISRDNAGNTLYLQMSSLRSEDTAMYFCARQEVPYPYAMDYWGQGTSVIVSS VL: DIVLTQSPVIMSASLGEEITLTCSASSSVNYIHWYQQKSGTSPKVLIYQTSNLASGVPSRFSGSRSGTFYSLKISSVEAEDAADYYCHQWSSYPWTFGGGTKLEIK
Ans. 4.54e-06
